Where do the numbers come from? From patent EP4238973A1.

- Test system: Poa annua
- experiment: Herbicidal pre-emergence action
- Format: in vivo
- measurement-context: 1280 g/ha, visual grading after ca. 3 weeks vs untreated controls
quantity-kind: herbicidal effect in percent (%), POAAN
The answer consists of two parts: a number and, after it, its unit.

Answered cases to consult:
State herbicidal effect in percent (%), POAAN (Poa annua) of O=C(Nc1ncns1)c1cc(Cl)ncc1OC(F)(F)F .
90%

State herbicidal effect in percent (%), POAAN (Poa annua) of O=C(Nc1ncns1)c1cc(Cl)ncc1Cl .
100%

State herbicidal effect in percent (%), POAAN (Poa annua) of O=C(Nc1ncns1)c1ccncc1I .
90%

State herbicidal effect in percent (%), POAAN (Poa annua) of O=C(Nc1ncns1)c1cc(F)ncc1Br .
90%

***
State herbicidal effect in percent (%), POAAN (Poa annua) of O=C(Nc1ncns1)c1cc(Cl)ncc1C(F)(F)F .
90%

State herbicidal effect in percent (%), POAAN (Poa annua) of O=C(Nc1ncns1)c1c(Br)cncc1Br .
100%

* * *

Measured herbicidal effect in percent (%), STEME, listed per entry.
- Tested on: Stellaria media
- experiment: Herbicidal post-emergence action
- Type: in vivo
- measurement-context: 1280 g/ha, visual assessment after ca. 3 weeks vs untreated controls
Field: numeric (%). Do not append units.

Answered cases to consult:
Determine its reported herbicidal effect in percent (%), STEME: O=C(Nc1ncns1)c1ccncc1I [Example 1-004]
100

Determine its reported herbicidal effect in percent (%), STEME: O=C(Nc1ncns1)c1cc(Cl)ncc1C(F)(F)F [Example I-013]
100

Determine its reported herbicidal effect in percent (%), STEME: O=C(Nc1ncns1)c1cc(Cl)ncc1Cl [Example I-011]
100

Determine its reported herbicidal effect in percent (%), STEME: O=C(Nc1ncns1)c1cc(F)ncc1Br [Example I-027]
90

Determine its reported herbicidal effect in percent (%), STEME: O=C(Nc1ncns1)c1c(Br)cncc1Br [Example I-015]
100

Determine its reported herbicidal effect in percent (%), STEME: O=C(Nc1ncns1)c1cc(Cl)ncc1OC(F)(F)F [Example 1-012]
100

***
Determine its reported herbicidal effect in percent (%), STEME: O=C(Nc1nc(Cl)ns1)c1ccncc1I [Example 1-023]
90
